- systemTested: Histamine H3 receptor (Homo sapiens)
- Sequence (Q9Y5N1 whole entry): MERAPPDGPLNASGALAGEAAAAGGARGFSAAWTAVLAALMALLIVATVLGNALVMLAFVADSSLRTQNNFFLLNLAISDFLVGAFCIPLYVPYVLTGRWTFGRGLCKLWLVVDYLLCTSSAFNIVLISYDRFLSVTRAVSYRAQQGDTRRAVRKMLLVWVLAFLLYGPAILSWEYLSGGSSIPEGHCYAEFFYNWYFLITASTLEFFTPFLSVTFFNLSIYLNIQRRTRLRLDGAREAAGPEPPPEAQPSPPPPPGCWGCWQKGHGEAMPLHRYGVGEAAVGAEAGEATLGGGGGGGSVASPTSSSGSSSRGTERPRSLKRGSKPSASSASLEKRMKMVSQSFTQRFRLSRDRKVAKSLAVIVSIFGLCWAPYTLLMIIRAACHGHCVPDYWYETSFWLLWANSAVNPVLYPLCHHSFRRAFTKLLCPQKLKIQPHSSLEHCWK
- protocolDescription: Binding affinity to histamine H3 receptor
reportedProperty: pKi
Answers are plain numbers, as −log10 of the molar value.

Given the entry NCC[C@@H]1C[C@@H]1c1cnc[nH]1 , report its measured pKi. 8.89

---

- systemTested: UniProt Q9H3N8
- Sequence (Q9H3N8 whole entry): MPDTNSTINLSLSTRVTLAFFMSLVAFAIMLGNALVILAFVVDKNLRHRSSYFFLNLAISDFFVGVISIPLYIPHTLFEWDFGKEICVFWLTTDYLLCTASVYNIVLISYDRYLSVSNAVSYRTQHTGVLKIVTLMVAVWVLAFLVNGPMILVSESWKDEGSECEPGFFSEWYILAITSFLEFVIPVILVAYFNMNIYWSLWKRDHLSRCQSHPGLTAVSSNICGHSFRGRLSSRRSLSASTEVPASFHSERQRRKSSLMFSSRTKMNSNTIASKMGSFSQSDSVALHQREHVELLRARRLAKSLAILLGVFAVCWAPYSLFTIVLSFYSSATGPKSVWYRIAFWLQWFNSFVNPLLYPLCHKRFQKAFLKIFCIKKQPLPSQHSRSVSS
reportedProperty: Ki (nM)
One number for each entry, in nM.

Given the entry Cc1nc[nH]c1[C@@H]1C[C@H]1CCNCc1ccc(Cl)cc1 , report its measured Ki. 148

Just for reference, ChEMBL document CHEMBL1159097 is where these values come from.
